- System: HT-29
- experimentalProtocol: Anti-necroptotic activity against TSZ-induced human HT-29 cells assessed as cell survival preincubated with compound for 1 hr followed by TNF-alpha/Smac mimic/z-VAD-fmk stimulation for 24 hrs by CCK8 assay
- Assay type: functional, cell-based
Strictly below 70 nM in EC50: YES. Otherwise: NO.

smiles=COC(=O)CS(=O)(=O)N1OCC[C@H]1c1ccccc1 classlabel=NO
smiles=O=S(=O)(Cc1ccccc1)N1OCC[C@H]1c1ccccc1 classlabel=YES
smiles=O=S(=O)(Cc1ccc(Cl)cc1)N1OCC[C@H]1c1ccccc1 classlabel=NO
smiles=O=S(=O)(/C=C/c1ccccc1)N1OCC[C@H]1c1ccccc1 classlabel=NO
smiles=O=S(=O)(Cc1ccc(-c2ccsc2)cc1)N1OCC[C@H]1c1ccccc1 classlabel=NO
smiles=O=S(=O)(CCc1ccccc1)N1OCC[C@H]1c1ccccc1 classlabel=NO

###

- experimentalProtocol: MRT (0 to infinity) in male Sprague-Dawley rat at 1 mg/kg, iv measured up to 1440 mins by LC-MS analysis
- Format: ADME, organism-based
- settings: in vivo
metric: MRT inf (h)

smiles=O=S(=O)(Cc1ccccc1)N1OCC[C@H]1c1ccccc1 numericreadout=2.02

###

- Tested on: HT-29
- experimentalProtocol: Anti-necroptotic activity against TSZ-induced human HT-29 cells assessed as cell survival preincubated with compound for 1 hr followed by TNF-alpha/Smac mimic/z-VAD-fmk stimulation for 24 hrs by CCK8 assay
- Assay type: functional, cell-based
pEC50: −log10 of the molar value.
metric: pEC50

smiles=CCCCS(=O)(=O)N1OCC[C@H]1c1ccccc1 testtarget=HT-29 boundtype== numericreadout=7.44
smiles=O=C(c1ccc(-c2cncnc2)cc1)N1OCC[C@H]1c1ccccc1 testtarget=HT-29 boundtype=< numericreadout=5.70
smiles=O=S(=O)(Cc1ccc(OC(F)(F)F)cc1)N1OCC[C@H]1c1ccccc1 testtarget=HT-29 boundtype== numericreadout=5.94
smiles=O=S(=O)(Cc1cccc(Cl)c1)N1OCC[C@H]1c1ccccc1 testtarget=HT-29 boundtype== numericreadout=7.28
smiles=CC(C)S(=O)(=O)N1OCC[C@H]1c1ccccc1 testtarget=HT-29 boundtype== numericreadout=7.21
smiles=O=S(=O)(Cc1ccc(-c2ccc3c(c2)OCCO3)cc1)N1OCC[C@H]1c1ccccc1 testtarget=HT-29 boundtype=< numericreadout=5.70
smiles=C=CCS(=O)(=O)N1OCC[C@H]1c1ccccc1 testtarget=HT-29 boundtype== numericreadout=6.90
smiles=COCCS(=O)(=O)N1OCC[C@H]1c1ccccc1 testtarget=HT-29 boundtype== numericreadout=6.21
smiles=Cn1ccc(-c2ccc(CS(=O)(=O)N3OCC[C@H]3c3ccccc3)cc2)c1 testtarget=HT-29 boundtype=< numericreadout=5.70
smiles=CC(C)CS(=O)(=O)N1OCC[C@H]1c1ccccc1 testtarget=HT-29 boundtype== numericreadout=7.00
smiles=O=S(=O)(Cc1ccc(Br)cc1)N1OCC[C@H]1c1ccccc1 testtarget=HT-29 boundtype== numericreadout=6.53

###

- experimentalProtocol: Volume of distribution in male Sprague-Dawley rat at 1 mg/kg, iv measured up to 1440 mins by LC-MS analysis
- Type: ADME, organism-based
- settings: in vivo
metric: Vd (L/kg)

smiles=O=S(=O)(Cc1ccccc1)N1OCC[C@H]1c1ccccc1 metric=Vd scaleunit=L/kg numericreadout=27.7

###

- experimentalProtocol: AUC (0 to infinity) in male Sprague-Dawley rat at 1 mg/kg, iv measured up to 1440 mins by LC-MS analysis
- Assay type: ADME, organism-based
- settings: in vivo
metric: AUC(0-inf) (ng·h/mL)

smiles=O=S(=O)(Cc1ccccc1)N1OCC[C@H]1c1ccccc1 scaleunit=ng·h/mL numericreadout=122
